Quick record: IC50, QPCTL (Homo sapiens (Human)).

Field IC50 (entry O=C1[C@@H](C2CC2)[C@@H](c2c(F)cc(-c3ccc(C(F)(F)F)nn3)cc2F)N1c1ccc2[nH]cnc2c1 [Compound 52A] ) reads 25 to 1000 nM

Reported IC50 for O=C1[C@@H](C2CC2)[C@@H](c2c(F)cc(-c3cnccn3)cc2F)N1c1ccc2[nH]cnc2c1 [Compound 53A] was > 1000 nM

// sample Cc1cc(-n2cnc(C(F)(F)F)c2)ccc1[C@@H]1[C@H](C2CC2)C(=O)N1c1ccc2[nH]cnc2c1 (single isomer, unassigned) [Compound 74A] , its IC50 was 25 to 1000 nM

The reported IC50 of the compound CC1(C)C(=O)N(c2ccc3[nH]cnc3c2)C1c1c(F)cc(OCCC(F)F)cc1F (racemic) was > 1000 nM

Per the record, C[C@@H]1C(=O)N(c2ccc3[nH]cnc3c2)[C@@H]1c1c(F)cc(OCC(C)(C)O)cc1F (single isomer, unassigned) [Compound 32A] has IC50 of 25 to 1000 nM

IC50 recorded for this compound, C=C1C(=O)N(c2ccc3[nH]cnc3c2)[C@@H]1c1c(F)cc(OCCC(F)F)cc1F (single isomer, unassigned) [Compound 22A] , is 25 to 1000 nM

The recorded IC50 for entry O=C1[C@H](C2CC2)[C@H](c2c(F)cc(-c3cn(C(F)(F)F)nn3)cc2F)N1c1ccc2[nH]cnc2c1 (single isomer, unassigned) [Compound 50B] equals < 2 nM

Looking up O=C1[C@H](C2CC2)[C@H](c2c(F)cc(-c3ccc(C(F)(F)F)nn3)cc2F)N1c1ccc2[nH]cnc2c1 (single isomer, unassigned) [Compound 52B] , I see its IC50 listed as < 2 nM

====

Here we list compounds with their recorded IC50 when tested on QPCTL (Homo sapiens (Human), UniProt Q9NXS2).
Sequence (Q9NXS2 whole entry, species assumed): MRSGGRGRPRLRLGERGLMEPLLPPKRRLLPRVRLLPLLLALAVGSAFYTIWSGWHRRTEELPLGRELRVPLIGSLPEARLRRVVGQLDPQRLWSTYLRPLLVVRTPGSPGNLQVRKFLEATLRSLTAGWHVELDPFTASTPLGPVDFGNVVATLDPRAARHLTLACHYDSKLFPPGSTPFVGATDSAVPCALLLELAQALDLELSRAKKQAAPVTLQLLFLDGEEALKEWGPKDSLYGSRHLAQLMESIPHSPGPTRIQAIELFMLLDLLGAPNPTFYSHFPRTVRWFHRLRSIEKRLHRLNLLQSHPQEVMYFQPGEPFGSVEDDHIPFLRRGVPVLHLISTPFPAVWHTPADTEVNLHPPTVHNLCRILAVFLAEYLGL

Cc1ccc(-c2ccc([C@@H]3[C@H](C4CC4)C(=O)N3c3ccc4[nH]cnc4c3)c(C)n2)nn1 (single isomer, unassigned) [Compound 71A]; 25 to 1000 nM
O=C1[C@H](C2CC2)[C@H](c2ccc(-c3cnn(C(F)(F)F)c3)cc2Cl)N1c1ccc2[nH]cnc2c1 (single isomer, unassigned) [Compound 75B]; < 2 nM
O=C1[C@@H](C2CC2)[C@@H](c2c(F)cc(OCCC(F)F)cc2F)N1c1ccc2[nH]cnc2c1 (single isomer, unassigned) [Compound 18A]; > 1000 nM

With QPCTL (Homo sapiens (Human), UniProt Q9NXS2) as the test system, O=C1[C@H](CC(F)(F)F)[C@H](c2c(F)cc(-c3cnn(C(F)(F)F)c3)cc2F)N1c1ccc2[nH]cnc2c1 (single isomer, unassigned) [Compound 54B] showed IC50 of < 2 nM

Form field, IC50 with QPCTL (Homo sapiens (Human), UniProt Q9NXS2), item O=C1[C@@H](O)[C@H](c2c(F)cc(-c3cnn(C(F)F)c3)cc2F)N1c1ccc2[nH]cnc2c1 (racemic) [Compound 25TR] : 2 to 25 nM

Recorded IC50 for C[C@H]1C(=O)N(c2ccc3[nH]cnc3c2)[C@H]1c1c(F)cc(OCC(C)(C)O)cc1F (single isomer, unassigned) [Compound 32B] on QPCTL (Homo sapiens (Human), UniProt Q9NXS2) was < 2 nM

====

Observed pIC50 values for QPCTL (Homo sapiens (Human), UniProt Q9NXS2) are listed in what follows.
pIC50: −log10 of the molar value.

Hey, QPCTL (Homo sapiens (Human), UniProt Q9NXS2) data for O=C1[C@H](C2CC2)[C@H](c2ccc(-c3cnn(C(F)(F)F)c3)nc2)N1c1ccc2[nH]cnc2c1 (single isomer, unassigned) [Compound 43B] : pIC50 came out at > 8.70

The recorded pIC50 with QPCTL (Homo sapiens (Human), UniProt Q9NXS2) for O=C1[C@H](C2CC2)[C@H](c2c(F)cc(OCCC(F)F)cc2F)N1c1ccc2[nH]cnc2c1 (single isomer, unassigned) [Compound 18B] was > 8.70

Response field pIC50 (QPCTL (Homo sapiens (Human), UniProt Q9NXS2)) for item C[C@H]1C(=O)N(c2ccc3[nH]cnc3c2)[C@H]1c1c(F)cc(-c2cnn(C(F)F)c2)cc1F (single isomer, unassigned) [Compound 17B] : > 8.70
